Below, each entry is listed alongside its reported growth inhibition.
- protocol-details: NCI Yeast Anticancer Drug Screen. Data for the mec2-1 strain (AID 157)
- condition-description: S. cerevisiae mec2-1 strain, at 11.0 µM, hits give high values
Compounds without any hit were thinned out: in the full panel of roughly 79,000, 15% have a hit.
Unit % implied. Number only.

                                   compound  reading
0               Cc1cc2c3ccccc3c3ccccc3c2nn1       10
1  CN(C)CCNC(=O)c1cccc2c1Oc1c(cccc1[N+](=O)[O-])O2      -20
2      CC12C(=O)OC(=O)C(c3ccccc31)c1ccccc12       -5
3    Cc1ccc2c3ccc4c(c3n(C)c2c1)C(=O)C=CC4=O       -3
4  OC(CCNCc1ccccc1)c1ccc2ccccc2c1 (configuration not stated)       22

// moving on: another record for growth inhibition
Enquiry: Find the recorded growth inhibition belonging to `C(=Nc1ccc(-c2cc(-c3ccccc3)nc3ccc4ccccc4c23)cc1)c1ccccc1` and report it.
Return: 16

----------
- protocol-details: NCI Yeast Anticancer Drug Screen. Data for the wt2 strain (AID 169);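 note: 0% = growth of vehicle-treated yeast cultures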
- condition-description: S. cerevisiae wt2 strain growth inhibition; at 1.2 µM; hits give high values
About 79,000 compounds went through this panel and 15% of them were active in at least one assay; those are over-represented in the sample as a whole.
value-type: growth inhibition (%)
Number in %, nothing else.

Example compounds with recorded growth inhibition:
In [3]: df
Out[3]:
                                   compound         value_type  readout_units  reading
0                    O=c1[nH]c2ccc(Cl)cc2o1  growth inhibition              %      -27
1  CCOC(=O)c1[nH]n(-c2ccccc2)c(=O)c1C=NC(=S)C(N)=S  growth inhibition              %       -2
2    Cc1ccc2c3ccc4c(c3n(C)c2c1)C(=O)C=CC4=O  growth inhibition              %      -47

Please find the next compound below.
Enquiry: # get_value(readout='growth inhibition', item= `CC(C)CN(CC(C)C)C(=O)c1ccc(Cl)c(Cl)c1` )
Return: -3

----------
- protocol-details: NCI Yeast Anticancer Drug Screen. Data for the rad50 strain (AID 155);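 note: 0% = growth of vehicle-only cultures of the same strain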
- condition-description: S. cerevisiae rad50 strain growth inhibition; at 33.0 µM; hits give high values
Compounds without any hit were thinned out: in the full panel of roughly 79,000, 15% have a hit. The source made the active and inactive calls. No stated cut-off is given here; in the data, active means growth inhibition above about 70%; inactive means the rest.
value-type: growth inhibition

Would you please look over these solved cases?
>>> print(df.to_string())
                                   molecule         reading
0  CC(=O)SC(C[N+](=O)[O-])c1ccccc1 (stereo unspecified)    99% (active)
1            Nc1ccc2c(c1)C(=O)c1ccc(F)cc1-2  61% (inactive)
2      O=C(O)c1cc2ccc(Cl)cc2c(O)c1C1=CCCCC1  36% (inactive)
3  CN(C)CCOC1(Cc2ccc(F)cc2)CCC(C(C)(C)C)CC1 (stereo unspecified)  53% (inactive)

Enquiry: Param item = `Nc1n[n+]([O-])c2ccc(Cl)cc2[n+]1[O-]` ; retrieve measured growth inhibition.
Return: 92% (active)

Enquiry: Recorded growth inhibition for CCC(C)NC1=NCC(C)S1 (stereo unspecified) , please?
Return: -34% (inactive)

Enquiry: Returns the measured growth inhibition for the input molecule. Input: `CCOC(=N)c1ccc(O)c(OC)c1`
Return: -1% (inactive)

Enquiry: Find the recorded growth inhibition belonging to COc1cc([C@@H]2c3cc4c(cc3[C@H](OC3OC5COC(C(C)C)OC5C(O)C3O)C3COC(=O)[C@@H]32)OCO4)cc(OC)c1O (stereo partly specified) and report it.
Return: 42% (inactive)

Enquiry: // growth inhibition lookup, key: `O=[N+]([O-])/C=C/c1cc(Cl)c(/C=C/[N+](=O)[O-])cc1Cl`
Return: 97% (active)

Enquiry: Any idea what its growth inhibition is? The molecule is `CC(C)(C)C1=CC(=CC=C2C=CN(CCCCCCCCCCCO)C=C2)C=C(C(C)(C)C)C1=O`
Return: 98% (active)

Enquiry: Field request: growth inhibition | item: CC1CC(C)(C)CC(OCCN2CCCCC2)(c2ccccc2)C1 (stereo unspecified)
Return: 25% (inactive)

----------
- protocol-details: NCI Yeast Anticancer Drug Screen. Data for the rad50EPP+ strain (AID 151);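 note: 0% = growth of vehicle-treated control cultures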
- condition-description: S. cerevisiae rad50 mutant strain, at 100.0 µM, hits give high values
Compounds without any hit were thinned out: in the full panel of roughly 79,000, 15% have a hit.
value-type: growth inhibition (%)
Numeric answer only, unit % assumed.

>>> df
                                compound  reading
0  Cc1ccc(NCCNCCO)c2c(=O)c3cc(O)ccc3sc12       51

Enquiry: Record request: growth inhibition value, item `CCOC(=O)c1[nH]n(-c2ccccc2)c(=O)c1C=NC(=S)C(N)=S`
Return: 69

Enquiry: Give its growth inhibition value. Item: `COc1ccc(/C=C2\NC(=S)N(/C=C3\C(=O)Oc4ccccc4C3=O)C2=O)cc1`
Return: -2

Enquiry: Requested read-out: growth inhibition. Entry: CCCCNC1CCC2(SCCS2)c2[nH]c3ccccc3c21 (stereo not given)
Return: 7

Enquiry: Entry under review: `O=Cc1ccc2c(c1)C(=O)c1ccccc1C2=O` . Reported growth inhibition?
Return: 83

Enquiry: Which growth inhibition value is on record for CC(=O)OC1CC2C(C)(C)C(=O)C=C[C@]2(C)C2CCC3(C)C(=CCC3[C@H](CO)C[C@H](O)C(=O)C(C)(C)O)[C@]12C (stereo not given in full) ?
Return: -31

Enquiry: Requested field: growth inhibition. Item: `C/C=C/SC(=Nc1ccccc1)Nc1ccccc1`
Return: 39

Enquiry: So what does the record say about growth inhibition for `CCOc1c(N=Nc2ccccc2OC)c(C)nn1C(=S)S` ?
Return: 79

Enquiry: I would be grateful if you could share the reported growth inhibition for `C[C](C)(C)[Ge]([O][Ge]([c]1ccccc1)[c]1ccccc1)([O][Ge]([c]1ccccc1)[c]1ccccc1)[C](C)(C)C` .
Return: -3

Enquiry: So what does the record say about growth inhibition for `Oc1ccc2ccccc2c1CCc1c(O)ccc2ccccc12` ?
Return: 83

----------
- protocol-details: NCI Yeast Anticancer Drug Screen. Data for the rad50EPP+ strain (AID 151);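 note: 0% = growth of vehicle-treated control cultures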
- condition-description: S. cerevisiae rad50 mutant strain, at 11.0 µM, hits give high values
This is part of a sample that, as a whole, favours compounds with a hit. Of some 79,000 tested, about 15% had one in any assay.
value-type: growth inhibition (%)
Number only, in %; omit the unit.

Please review the following examples before continuing.
compound	readout-units	growth inhibition
CCN(CC)Cc1cc(Nc2c3ccccc3nc3c2[nH]c2ccccc23)cc(CN(CC)CC)c1O	%	3
CC(O)=NC(Cc1ccc2ccccc2c1)C(O)=NC(Cc1ccc(Cl)cc1)C(O)=NC(Cc1c[nH]c2ccccc12)C(O)=NC(CO)C(O)=NC(Cc1ccc(O)cc1)C(O)=NC(CCCN=C(N)N)C(O)=NC(CC(C)C)C(O)=NC(CCCN=C(N)N)C(=O)N1CCCC1C(O)=NC(C)C(=N)O (centres undefined)	%	11
Cc1ccc(NC(=O)/C(CC2N=c3c(ccc4c(O)c5ccccc5c(O)c34)=NC2O)=N/NC(C)(C)C)cc1 (centres undefined)	%	44

Enquiry: Param item = `Cc1nc2ccc(N=NN(C)C)cc2[nH]1` ; retrieve measured growth inhibition.
Return: 8

----------
- protocol-details: NCI Yeast Anticancer Drug Screen. Data for the mgt1 strain (AID 153)
- condition-description: S. cerevisiae mgt1 mutant growth inhibition; at 33.0 µM
This is part of a sample that, as a whole, favours compounds with a hit. Of some 79,000 tested, about 15% had one in any assay. Calls of active or inactive are those of the source. Rule as the data show it: active = growth inhibition above about 70%; inactive = the rest.
Your answer must be one of the following: active, inactive

                  compound   group
0  COc1ccc(N=CN(C)C)c(C)c1  active

Enquiry: Per the assay record, what outcome was assigned to `CC[n+]1oc(C(=O)c2ccc(Cl)cc2)c(-c2ccccc2)c1-c1ccccc1.[Cl][Fe]([Cl])([Cl])[Cl]` ?
Return: inactive

Enquiry: # lookup: test call for `O=C(NCCCNCCN1C(=O)c2cccc3cc([N+](=O)[O-])cc(c23)C1=O)c1cc(-c2ccccc2)nc2ccccc12`
Return: inactive

Enquiry: Identify the outcome logged in this assay for the compound shown: CC(=O)OCC(C)Cc1cc2c(cc1Br)OCO2 (stereo not given)
Return: inactive

Enquiry: Field: outcome | Entry: C[Si](C)(C)/C=C/CCNC(C#N)c1ccccc1 (stereo not given)
Return: inactive

Enquiry: Per the records of this test, what outcome belongs to `NCCNCCNc1ccc(NCCNCCN)c2c1C(=O)c1c(O)ccc(O)c1C2=O` ?
Return: inactive

Enquiry: Query: recorded result category for `O=c1nc2n(Cc3ccccc3)c3ccccc3nc-2c(=O)[nH]1` in this test
Return: active

Reference source for all entries: PubChem BioAssay (NCI)
